Provide the recorded CLH for the entries that follow.
experiment: Metabolic stability in Wistar rat liver Microsome assessed as clearance measured upto 60 mins by LC-MS/MS analysis; type: ADME; conditions: microsomes, 1 h

State the recorded CLH for this entry: Cc1cc(C)n(-c2cccc([C@H](CC(=O)O)CN3CC[C@@](F)(CCc4ccc5c(n4)NCCC5)C3)c2)n1
0.91 mL/min/g

State the recorded CLH for this entry: O=C(O)C[C@H](CN1CC[C@@](F)(CCc2ccc3c(n2)NCCC3)C1)c1cccc(O[C@@H]2CCOC2)c1
< 0.46 mL/min/g

State the recorded CLH for this entry: O=C(O)C[C@H](CN1CC[C@@](F)(CCc2ccc3c(n2)NCCC3)C1)c1cccc(OC2CCOCC2)c1
< 0.46 mL/min/g

State the recorded CLH for this entry: O=C(O)C[C@H](CN1CC[C@@](F)(CCc2ccc3c(n2)NCCC3)C1)c1cccc(N2CCOCC2)c1
< 0.49 mL/min/g

----------
Provide the recorded CL free for the entries that follow.
test: Unbound clearance in male Wistar Han rat at 1 mg/kg, po or 1 mg/kg, iv measured upto 24 hrs by LC-MS/MS analysis; type: ADME, organism-based; details: in vivo
Reply with just the number (in mL/min/kg).

State the recorded CL free for this entry: O=C(O)C[C@H](CN1CC[C@@](F)(CCc2ccc3c(n2)NCCC3)C1)c1cccc(O[C@H]2CCOC2)c1
58

State the recorded CL free for this entry: O=C(O)C[C@H](CN1CC[C@@](F)(CCc2ccc3c(n2)NCCC3)C1)c1cccc(O[C@@H]2CCOC2)c1
88

State the recorded CL free for this entry: O=C(O)C[C@H](CN1CC[C@@](F)(CCc2ccc3c(n2)NCCC3)C1)c1cccc(N2CCOCC2)c1
206

State the recorded CL free for this entry: O=C(O)C[C@H](CN1CC[C@@](F)(CCc2ccc3c(n2)NCCC3)C1)c1cccc(OC2CCOCC2)c1
182

State the recorded CL free for this entry: Cc1cc(C)n(-c2cccc([C@H](CC(=O)O)CN3CC[C@@H](CCc4ccc5c(n4)NCCC5)C3)c2)n1.Cl [GSK-3008348]
189

----------
test: Volume of distribution at steady state in Gottingen minipig at 1 mg/kg, po or 1 mg/kg, iv measured upto 24 hrs by LC-MS/MS analysis; assay type: ADME, organism-based, Sus scrofa; conditions: pig, in vivo
MEASURED ENDPOINT: Vdss (L/kg)
Reply with just the number (in L/kg).

State the recorded Vdss for this entry: O=C(O)C[C@H](CN1CC[C@@](F)(CCc2ccc3c(n2)NCCC3)C1)c1cccc(O[C@@H]2CCOC2)c1
1.5

State the recorded Vdss for this entry: COCCOc1cccc([C@H](CC(=O)O)CN2CC[C@@](F)(CCc3ccc4c(n3)NCCC4)C2)c1
0.9

State the recorded Vdss for this entry: O=C(O)C[C@H](CN1CC[C@@](F)(CCc2ccc3c(n2)NCCC3)C1)c1cccc(N2CCOCC2)c1
2.5

State the recorded Vdss for this entry: O=C(O)C[C@H](CN1CC[C@@](F)(CCc2ccc3c(n2)NCCC3)C1)c1cccc(O[C@H]2CCOC2)c1
1.4

----------
Provide the recorded logD for the entries that follow.
assay: physchem; conditions: octanol/water, pH 7.4, logD
Description: Distribution coefficient, logD of compound at pH 7.4 by HPLC analysis
Give the figure only, with no unit attached.

State the recorded logD for this entry: O=C(O)C[C@H](CN1CC[C@@H](CCc2ccc3c(n2)NCCC3)C1)c1cccc(N2CCOCC2)c1
2.27

State the recorded logD for this entry: O=C(O)C[C@H](CN1CC[C@@](F)(CCc2ccc3c(n2)NCCC3)C1)c1cccc(O[C@@H]2CCOC2)c1
2.76

State the recorded logD for this entry: COCCOc1cccc([C@H](CC(=O)O)CN2CC[C@](F)(CCc3ccc4c(n3)NCCC4)C2)c1
2.89

State the recorded logD for this entry: O=C(O)C[C@H](CN1CC[C@@](F)(CCc2ccc3c(n2)NCCC3)C1)c1cccc(OC2CCOCC2)c1
3.18

State the recorded logD for this entry: O=C(O)C[C@H](CN1CC(CCc2ccc3c(n2)NCCC3)CC(F)(F)C1)c1cccc(N2CCOCC2)c1 (stereo in doubt; 3a)
3.46

State the recorded logD for this entry: O=C(O)C[C@H](CN1CC[C@@](F)(CCc2ccc3c(n2)NCCC3)C1)c1cccc(O[C@H]2CCOC2)c1
2.84

State the recorded logD for this entry: COCCOc1cccc([C@H](CC(=O)O)CN2CC[C@@](F)(CCc3ccc4c(n3)NCCC4)C2)c1
2.93

State the recorded logD for this entry: O=C(O)C[C@H](CN1CCC(F)(F)C(CCc2ccc3c(n2)NCCC3)C1)c1cccc(N2CCOCC2)c1 (stereo in doubt; 2a)
4.02

----------
experiment: Permeability across apical to basolateral side in MDCK cells; assay type: ADME, cell-based, Canis lupus familiaris; details: dog, read-out: permeability
Papp A→B vs 9 ×10⁻⁶ cm/s: at or above is Criterion met, below is Criterion not met.

Dear colleague, could you confirm whether Cc1cc(C)n(-c2cccc([C@H](CC(=O)O)CN3CC[C@@](F)(CCc4ccc5c(n4)NCCC5)C3)c2)n1 has Papp A→B at or above 9 ×10⁻⁶ cm/s?
Criterion met

Dear colleague, could you confirm whether O=C(O)C[C@H](CN1CC[C@@](F)(CCc2ccc3c(n2)NCCC3)C1)c1cccc(O[C@@H]2CCOC2)c1 has Papp A→B at or above 9 ×10⁻⁶ cm/s?
Criterion not met

Dear colleague, could you confirm whether O=C(O)C[C@H](CN1CC[C@@](F)(CCc2ccc3c(n2)NCCC3)C1)c1cccc(N2CCOCC2)c1 has Papp A→B at or above 9 ×10⁻⁶ cm/s?
Criterion not met

Dear colleague, could you confirm whether COCCOc1cccc([C@H](CC(=O)O)CN2CC[C@@](F)(CCc3ccc4c(n3)NCCC4)C2)c1 has Papp A→B at or above 9 ×10⁻⁶ cm/s?
Criterion not met

Dear colleague, could you confirm whether O=C(O)C[C@H](CN1CC[C@@](F)(CCc2ccc3c(n2)NCCC3)C1)c1cccc(OC2CCOCC2)c1 has Papp A→B at or above 9 ×10⁻⁶ cm/s?
Criterion met

Dear colleague, could you confirm whether COCCOc1cccc([C@H](CC(=O)O)CN2CC[C@](F)(CCc3ccc4c(n3)NCCC4)C2)c1 has Papp A→B at or above 9 ×10⁻⁶ cm/s?
Criterion not met

Dear colleague, could you confirm whether O=C(O)C[C@H](CN1CC[C@@](F)(CCc2ccc3c(n2)NCCC3)C1)c1cccc(O[C@H]2CCOC2)c1 has Papp A→B at or above 9 ×10⁻⁶ cm/s?
Criterion not met

----------
Provide the recorded pIC50 for the entries that follow.
target: Integrin alpha-V/beta-3 (Homo sapiens, UniProt P05106+P06756); test: Binding affinity to Integrin alphaVbeta3 (unknown origin); assay type: protein-complex assay
Sequence (P05106 27-788 limits assumed): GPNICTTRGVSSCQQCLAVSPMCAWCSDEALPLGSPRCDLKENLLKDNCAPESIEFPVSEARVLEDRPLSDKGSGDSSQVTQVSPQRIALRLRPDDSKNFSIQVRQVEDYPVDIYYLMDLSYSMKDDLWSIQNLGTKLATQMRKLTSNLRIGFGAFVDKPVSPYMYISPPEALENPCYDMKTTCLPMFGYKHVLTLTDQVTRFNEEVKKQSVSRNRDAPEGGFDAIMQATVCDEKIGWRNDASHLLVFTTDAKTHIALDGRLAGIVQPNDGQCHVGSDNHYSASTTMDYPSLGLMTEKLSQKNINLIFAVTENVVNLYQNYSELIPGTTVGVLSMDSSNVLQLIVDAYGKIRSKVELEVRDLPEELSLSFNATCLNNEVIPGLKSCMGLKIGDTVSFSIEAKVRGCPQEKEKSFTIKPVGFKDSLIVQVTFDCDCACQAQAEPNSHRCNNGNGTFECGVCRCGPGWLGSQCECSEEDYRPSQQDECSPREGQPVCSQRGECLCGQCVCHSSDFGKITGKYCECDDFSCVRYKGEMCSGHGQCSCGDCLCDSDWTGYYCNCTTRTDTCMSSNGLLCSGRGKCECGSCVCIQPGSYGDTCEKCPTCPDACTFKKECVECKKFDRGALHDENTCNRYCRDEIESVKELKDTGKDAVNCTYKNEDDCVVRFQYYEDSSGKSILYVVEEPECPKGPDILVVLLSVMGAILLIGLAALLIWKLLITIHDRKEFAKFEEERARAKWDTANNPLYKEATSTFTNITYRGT
Sequence (P06756 31-889 limits assumed): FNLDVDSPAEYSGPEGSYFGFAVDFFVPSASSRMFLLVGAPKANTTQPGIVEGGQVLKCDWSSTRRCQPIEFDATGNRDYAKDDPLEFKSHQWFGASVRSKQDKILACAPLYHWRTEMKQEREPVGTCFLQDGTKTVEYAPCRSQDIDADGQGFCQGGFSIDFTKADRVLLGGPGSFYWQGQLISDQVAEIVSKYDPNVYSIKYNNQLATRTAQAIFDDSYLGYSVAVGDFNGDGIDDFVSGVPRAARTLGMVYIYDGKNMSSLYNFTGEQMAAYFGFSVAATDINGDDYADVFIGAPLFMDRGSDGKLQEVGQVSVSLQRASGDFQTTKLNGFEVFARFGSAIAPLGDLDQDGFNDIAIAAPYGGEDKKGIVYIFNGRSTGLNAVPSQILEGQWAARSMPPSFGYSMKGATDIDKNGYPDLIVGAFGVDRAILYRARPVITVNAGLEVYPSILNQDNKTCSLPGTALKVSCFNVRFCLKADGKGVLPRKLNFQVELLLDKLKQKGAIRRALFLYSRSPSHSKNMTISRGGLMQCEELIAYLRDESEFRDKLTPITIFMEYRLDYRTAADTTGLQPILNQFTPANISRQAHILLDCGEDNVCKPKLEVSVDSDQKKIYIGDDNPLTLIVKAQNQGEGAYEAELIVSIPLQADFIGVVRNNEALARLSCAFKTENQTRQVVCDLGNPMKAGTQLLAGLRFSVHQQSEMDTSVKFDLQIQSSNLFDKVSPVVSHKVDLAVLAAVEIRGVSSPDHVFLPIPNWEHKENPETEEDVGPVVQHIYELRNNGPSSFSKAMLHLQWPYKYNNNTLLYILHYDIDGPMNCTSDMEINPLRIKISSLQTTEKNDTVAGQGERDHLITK
Sequence (P06756 891-1048 limits assumed): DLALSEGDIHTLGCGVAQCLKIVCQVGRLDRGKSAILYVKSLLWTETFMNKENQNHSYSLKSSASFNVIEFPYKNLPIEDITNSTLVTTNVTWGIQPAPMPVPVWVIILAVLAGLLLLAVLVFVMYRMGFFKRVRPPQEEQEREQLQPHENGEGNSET
The value called pIC50 is obtained by taking minus log10 of the concentration in mol/L.

State the recorded pIC50 for this entry: O=C(O)C[C@H](CN1CC[C@@](F)(CCc2ccc3c(n2)NCCC3)C1)c1cccc(O[C@@H]2CCOC2)c1
7.20

State the recorded pIC50 for this entry: Cc1cc(C)n(-c2cccc([C@H](CC(=O)O)CN3CC[C@@](F)(CCc4ccc5c(n4)NCCC5)C3)c2)n1
6.50

----------
assay: physchem; settings: octanol/water, pH 7.4, logD
MEASURED ENDPOINT: logD
Give the figure only, with no unit attached.

State the recorded logD for this entry: Cc1cc(C)n(-c2cccc([C@H](CC(=O)O)CN3CC[C@@](F)(CCc4ccc5c(n4)NCCC5)C3)c2)n1
3.3

State the recorded logD for this entry: O=C(O)C[C@H](CN1CC[C@](F)(CCc2ccc3c(n2)NCCC3)C1)c1cccc(N2CCOCC2)c1
2.66

State the recorded logD for this entry: O=C(O)C[C@H](CN1CC[C@@](F)(CCc2ccc3c(n2)NCCC3)C1)c1cccc(N2CCOCC2)c1
2.68

State the recorded logD for this entry: O=C(O)C[C@H](CN1CCCC(F)(CCc2ccc3c(n2)NCCC3)C1)c1cccc(N2CCOCC2)c1 (stereo in doubt; 4a)
2.68

----------
assay: Oral bioavailability in Gottingen minipig at 1 mg/kg measured upto 24 hrs by LC-MS/MS analysis; format: ADME, organism-based, Sus scrofa; conditions: pig, in vivo
MEASURED ENDPOINT: bioavailability (%)
Reply with just the number (in %).

State the recorded bioavailability for this entry: O=C(O)C[C@H](CN1CC[C@@](F)(CCc2ccc3c(n2)NCCC3)C1)c1cccc(N2CCOCC2)c1
34

State the recorded bioavailability for this entry: O=C(O)C[C@H](CN1CC[C@@](F)(CCc2ccc3c(n2)NCCC3)C1)c1cccc(O[C@H]2CCOC2)c1
63

State the recorded bioavailability for this entry: O=C(O)C[C@H](CN1CC[C@@](F)(CCc2ccc3c(n2)NCCC3)C1)c1cccc(O[C@@H]2CCOC2)c1
66

State the recorded bioavailability for this entry: COCCOc1cccc([C@H](CC(=O)O)CN2CC[C@@](F)(CCc3ccc4c(n3)NCCC4)C2)c1
84
